Provenance of the data: ChEMBL document CHEMBL4145688

MEASUREMENT_PROTOCOL: Intrinsic clearance in rat hepatocytes assessed per million cells
Format: ADME, cell-based, Hepatocyte
SETUP_CONDITIONS: read-out: CLH
ATTRIBUTE_MEASURED: hepatocyte CLint (µL/min/1e6 cells)

(1) CCS(=O)(=O)c1ccc(C(NC(C)=O)C(=O)Nc2cc(-c3cccnc3OCc3ccccc3)cs2)cc1 (centres undefined)
(2) CCS(=O)(=O)c1ccc(C(N)C(=O)Nc2cc(-c3cc(C#N)cc(F)c3OC)cs2)cc1 (centres undefined)
Lab note: check whether 1 or 2 shows the higher recorded hepatocyte CLint. State your choice using its label. 1
(1: 24 µL/min/1e6 cells, 2: 11 µL/min/1e6 cells)
